CONDITION: 343.15 K; 95100 kPa; Liquid; Frequency=1.5 MHz; Single path-length method
TEST_READOUT: speed of sound (m/s)

MOLECULE: Cc1ccccc1 [toluene]
EXPERIMENTAL_VALUE: 1538.7

MOLECULE: CCCO [propan-1-ol]
EXPERIMENTAL_VALUE: 1512.2

MOLECULE: O [water]
EXPERIMENTAL_VALUE: 1723

MOLECULE: CCCCCCCC [octane]
EXPERIMENTAL_VALUE: 1515.2

MOLECULE: CCCCCCC [heptane]
EXPERIMENTAL_VALUE: 1492.7

MOLECULE: CCCCCC [hexane]
EXPERIMENTAL_VALUE: 1463.4

MOLECULE: CCO [ethanol]
EXPERIMENTAL_VALUE: 1464.1

MOLECULE: CO [methanol]
EXPERIMENTAL_VALUE: 1414

* * *

CONDITION: 333.15 K; 5100 kPa; Liquid; Frequency=1.5 MHz; Single path-length method
// speed of sound lookup, one value per entry

MOLECULE: CCCCCC [hexane]
speed of sound [m/s]: 972.45
--
MOLECULE: CCCCCCCC [octane]
speed of sound [m/s]: 1072.4
--
MOLECULE: Cc1ccccc1 [toluene]
speed of sound [m/s]: 1187.4
--
MOLECULE: O [water]
speed of sound [m/s]: 1560.1
--
MOLECULE: CCO [ethanol]
speed of sound [m/s]: 1062.7
--
MOLECULE: CO [methanol]
speed of sound [m/s]: 1025.2
--
MOLECULE: CCCO [propan-1-ol]
speed of sound [m/s]: 1122.2
--
MOLECULE: CCCCCCC [heptane]
speed of sound [m/s]: 1028.8

* * *

CONDITION: 293.15 K; 70100 kPa; Liquid; Frequency=1.5 MHz; Single path-length method
// speed of sound lookup, one value per entry
TEST_READOUT: speed of sound (m/s)

MOLECULE: CCCCCCC [heptane]
EXPERIMENTAL_VALUE: 1525.3

MOLECULE: Cc1ccccc1 [toluene]
EXPERIMENTAL_VALUE: 1605.2

MOLECULE: CO [methanol]
EXPERIMENTAL_VALUE: 1430.8

MOLECULE: CCCO [propan-1-ol]
EXPERIMENTAL_VALUE: 1537.2

MOLECULE: CCCCCCCC [octane]
EXPERIMENTAL_VALUE: 1549

MOLECULE: CCCCCC [hexane]
EXPERIMENTAL_VALUE: 1495.6

* * *

CONDITION: 303.15 K; 5100 kPa; Liquid; Frequency=1.5 MHz; Single path-length method

SMILES_CODE: CCO
MEASUREMENT_UNITS: m/s
speed of sound: 1159.8
--
SMILES_CODE: CCCCCC
MEASUREMENT_UNITS: m/s
speed of sound: 1097.9
--
SMILES_CODE: CCCCCCCC
MEASUREMENT_UNITS: m/s
speed of sound: 1187.6
--
SMILES_CODE: CO
MEASUREMENT_UNITS: m/s
speed of sound: 1118
--
SMILES_CODE: Cc1ccccc1
MEASUREMENT_UNITS: m/s
speed of sound: 1309.8
--
SMILES_CODE: CCCO
MEASUREMENT_UNITS: m/s
speed of sound: 1219.6

* * *

CONDITION: 333.15 K; 10100 kPa; Liquid; Frequency=1.5 MHz; Single path-length method

SMILES_CODE: CCCCCCCC
speed of sound [m/s]: 1110.1
--
SMILES_CODE: CCO
speed of sound [m/s]: 1096.3
--
SMILES_CODE: CO
speed of sound [m/s]: 1058

* * *

CONDITION: 343.15 K; 100 kPa; Liquid; Frequency=1.5 MHz; Single path-length method
Numbers after ± are expanded uncertainties.
// speed of sound lookup, one value per entry

MOLECULE: CCCCCCCC [octane]
speed of sound: 990.7 ± 2.1 m/s
//
MOLECULE: CCCCCCC [heptane]
speed of sound: 942.89 ± 2.2 m/s
//
MOLECULE: Cc1ccccc1 [toluene]
speed of sound: 1118 ± 2.3 m/s

* * *

// speed of sound lookup, one value per entry
CONDITION: 333.15 K; 100 kPa; Liquid; Frequency=1.5 MHz; Single path-length method
± gives the expanded uncertainty stated by the source.

MOLECULE: CCO [ethanol]
speed of sound: 1027 ± 2.1 m/s
//
MOLECULE: CCCCCCC [heptane]
speed of sound: 983.91 ± 2.2 m/s
//
MOLECULE: CO [methanol]
speed of sound: 989.77 ± 2 m/s
